Tested on: NCI-H23 lung
assay protocol: NCI-60 one-dose screen, 48 h (100 = growth as untreated, 0 = no growth, -100 = all killed)
measurement setup: 10 µM unless noted
The panel holds about 83,000 compounds, 20% with a hit somewhere; the sample as a whole holds those more often. The source made the active and inactive calls. The calls were made as follows: active = growth percent below 10; inactive = the rest.
Recorded measurements of growth, one per entry

[
  {
    "molecule": "O=[N+]([O-])c1ccc(-c2nc(N3CCOCC3)c3c4c(sc3n2)CCCC4)cc1",
    "growth": "88.8% (inactive)"
  },
  {
    "molecule": "C=CCc1c2c(c(OC)c3ccoc13)C(=O)/C(=C/c1ccccc1OC)O2",
    "growth": "19.7% (inactive)"
  },
  {
    "molecule": "Cc1ccccc1Cn1cnc2ccc(-c3cc(NC(=O)c4ccc(NC5CCN(C)CC5)cc4)n[nH]3)cc21",
    "growth": "75% (inactive)"
  },
  {
    "molecule": "CCc1ccc(Oc2cn[nH]c2-c2ccc(OCCc3ccc(F)cc3)cc2O)cc1",
    "growth": "92.8% (inactive)"
  },
  {
    "molecule": "O=[N+]([O-])c1ccc(N/N=C(/C(=N/Nc2ccc([N+](=O)[O-])cc2)c2ccccc2)c2ccccc2)cc1",
    "growth": "82.5% (inactive)"
  },
  {
    "molecule": "CCOC(=O)CSc1ncnc2c1c(-c1ccccc1)c(-c1ccccc1)n2-c1ccc(C)cc1",
    "growth": "75% (inactive)"
  },
  {
    "molecule": "CCOC(=O)c1cc2c(=O)oc3ccccc3c2oc1=O",
    "growth": "112% (inactive)"
  },
  {
    "molecule": "COc1cccc(/C=C/C(=O)c2cc3c(N)c(C(=O)Nc4ccccc4)sc3nc2C)c1",
    "growth": "49.6% (inactive)"
  },
  {
    "molecule": "Cn1cc(-c2nonc2-c2c[nH]c3ccc(Br)cc23)c2cc(Br)ccc21",
    "growth": "39.9% (inactive)"
  },
  {
    "molecule": "O=C(c1ccccc1)C1C(=O)N2C(=S)N(c3ccccc3)C(=O)C2C1c1ccc(Cl)cc1 (stereo not drawn)",
    "growth": "88.2% (inactive)"
  },
  {
    "molecule": "COc1ccc(C(=O)Nc2cccc(C3CC(=O)c4c(cc(OC)c(OC)c4OC)O3)c2)cc1 (stereo not drawn)",
    "growth": "35.2% (inactive)"
  },
  {
    "molecule": "C#CCOc1ccc2ncnc(Nc3ccc(NC(=O)CCl)cc3)c2c1",
    "growth": "-39% (active)"
  },
  {
    "molecule": "COC(C(=O)[C@@H](O)[C@@H](C)O)[C@@H]1Cc2cc3cc(O[C@H]4C[C@@H](O[C@H]5C[C@@H](O)[C@H](O)C(C)O5)[C@H](O)C(C)O4)c(C)c(O)c3c(O)c2C(=O)[C@H]1O[C@H]1C[C@@H](O[C@H]2C[C@@H](O[C@H]3C[C@@H](O)[C@H](OC)C(C)O3)[C@@H](O)C(C)O2)[C@H](O)C(C)O1 (stereo partly drawn)",
    "growth": "-30.6% (active)"
  },
  {
    "molecule": "COc1cc2c(c(OC)c1OC)C(=O)CC(c1cccc(NC(=O)c3ccc(Br)cc3)c1)O2 (stereo not drawn)",
    "growth": "51.2% (inactive)"
  },
  {
    "molecule": "C#Cc1cccc(Nc2ncnc3ccc(-c4cncc(NS(C)(=O)=O)c4)cc23)c1",
    "growth": "26.5% (inactive)"
  },
  {
    "molecule": "O=C(CN1C(=O)CCC1=O)Nc1ncc(Cc2ccc(F)cc2)s1",
    "growth": "98.6% (inactive)"
  },
  {
    "molecule": "C/C(Nc1ccc(Cl)c(Cl)c1)=C1\\CCOC1=O",
    "growth": "93.3% (inactive)"
  },
  {
    "molecule": "N#Cc1c(NC(=O)c2ccccc2)sc2c1CCC(=O)C2",
    "growth": "5.05% (active)"
  },
  {
    "molecule": "CC1=C(C(=O)OC(C)C)C(c2ccc3c(c2)OCO3)NC(=S)N1 (stereo not drawn)",
    "growth": "99.2% (inactive)"
  },
  {
    "molecule": "N#C/C(=C\\c1ccc2ccccc2c1)c1cc2ccccc2[nH]1",
    "growth": "48.8% (inactive)"
  },
  {
    "molecule": "COc1ccc(-c2csc(N(C(=O)N3CCN(c4cc5c(cc4F)c(=O)c(C(=O)O)cn5C4CC4)CC3)c3ccccc3)n2)cc1",
    "growth": "4.28% (active)"
  },
  {
    "molecule": "CN(C)C1CCN(Cc2ccc(NC(=O)c3cncc(C#Cc4cnc(N)c5ncccc45)c3)cc2C(F)(F)F)CC1",
    "growth": "84.7% (inactive)"
  },
  {
    "molecule": "Cc1ccc(/C=N/Nc2nc(Nc3ccccc3)nc(-n3nc(C)cc3C)n2)cc1",
    "growth": "54.8% (inactive)"
  },
  {
    "molecule": "N#Cc1cnc(NCCc2ccncc2)nc1-n1cnc2ccccc21",
    "growth": "76% (inactive)"
  },
  {
    "molecule": "O=S(=O)(Nc1cc(Br)c(O)c2ccccc12)c1ccc(F)cc1",
    "growth": "53.1% (inactive)"
  },
  {
    "molecule": "O=C1Nc2ccc(I)cc2C1=O",
    "growth": "89.7% (inactive)"
  },
  {
    "molecule": "CCOC(=O)C(=Cc1cccc(Cl)c1)C(=O)OCC",
    "growth": "57.2% (inactive)"
  },
  {
    "molecule": "Oc1c(Cl)cc(Cl)c2ccc(Cn3cc(-c4cc(F)cc(F)c4)nn3)nc12",
    "growth": "92.3% (inactive)"
  },
  {
    "molecule": "O=C1/C(=C/c2ccc(F)cc2)COc2ccc(O)cc21",
    "growth": "97% (inactive)"
  },
  {
    "molecule": "c1ccc(C2=NN[C@H](c3cn(-c4ccccc4)nc3-c3ccccc3)C2)cc1",
    "growth": "59.3% (inactive)"
  },
  {
    "molecule": "C=C(C)[C@@H]1CC[C@]2(C(=O)OC)CC[C@]3(C)[C@H](CC[C@@H]4[C@@]5(C)C/C(=C/NC(N)=S)C(=O)C(C)(C)[C@@H]5CC[C@]43C)[C@@H]12",
    "growth": "80.4% (inactive)"
  },
  {
    "molecule": "Cc1nn(-c2ccccc2)c(Oc2ccccn2)c1-c1nc2ccccc2s1",
    "growth": "87.7% (inactive)"
  },
  {
    "molecule": "CCSc1nc(NC)c2cc(-c3ccc(C(F)(F)F)cc3)ccc2n1",
    "growth": "94.3% (inactive)"
  },
  {
    "molecule": "Cc1cc2c(O)c(-c3cccc(Cl)c3)c3sc(=O)oc3c2cc1C",
    "growth": "12% (inactive)"
  },
  {
    "molecule": "COc1cc(/C=C/C(=O)c2cccc(Nc3nc(Nc4ccccc4)nc(Nc4ccccc4)n3)c2)cc(OC)c1OC",
    "growth": "40.7% (inactive)"
  },
  {
    "molecule": "CS(=O)(=O)Nc1cc(-c2ccc3ncnc(Nc4ccc5c(cnn5Cc5ccccn5)c4)c3c2)cnc1Cl",
    "growth": "76.7% (inactive)"
  },
  {
    "molecule": "CCCCCCCCCCCCCCCC(N)c1ccccc1 (stereo not drawn)",
    "growth": "-24.4% (active)"
  },
  {
    "molecule": "C#Cc1cccc(Nc2ncnc3ccc(-c4cnc(N)nc4)cc23)c1",
    "growth": "50% (inactive)"
  }
]

---

Tested on: EKVX NSCLC
assay protocol: NCI-60 one-dose screen, 48 h
measurement setup: 10 µM unless noted
This is part of a sample that, as a whole, favours compounds with a hit. Of some 83,000 tested, about 20% had one in any assay. The source made the active and inactive calls. How the source made its calls: active means growth percent below 10; inactive means the rest.
Labels: 1 (yes) = active, 0 (no) = inactive

[
  {
    "molecule": "O=C1/C(=C/c2ccc(F)cc2)COc2ccc(O)c(O)c21",
    "label value": "0 (no)"
  },
  {
    "molecule": "N#C/C(=C\\c1ccc(Br)cc1)n1nnc2ccc(F)cc21",
    "label value": "0 (no)"
  },
  {
    "molecule": "C=C(CNCCc1ccc(O)cc1)[C@@H]1CC[C@]2(CO)CC[C@]3(C)[C@H](CC[C@@H]4[C@@]5(C)CCC(NCCO)C(C)(C)[C@@H]5CC[C@]43C)[C@@H]12 (some centres undefined)",
    "label value": "1 (yes)"
  },
  {
    "molecule": "CC(=O)OCc1nc(C#N)c(N(C)C)o1",
    "label value": "0 (no)"
  },
  {
    "molecule": "CCOC(=O)c1cc(-c2ccc([N+](=O)[O-])cc2)n(-c2ccc(C(=O)O)c(O)c2)c1C",
    "label value": "0 (no)"
  },
  {
    "molecule": "N=C(N)c1ccc(-c2ccc(-c3ccc(F)cc3)o2)o1",
    "label value": "0 (no)"
  },
  {
    "molecule": "C=C(C)[C@@H]1CC[C@]2(C(=O)OC)CC[C@]3(C)[C@H](CC[C@@H]4[C@@]5(C)C/C(=C/NC(N)=S)C(=O)C(C)(C)[C@@H]5CC[C@]43C)[C@@H]12",
    "label value": "0 (no)"
  },
  {
    "molecule": "Cc1ccc(C2=Nc3c(N)ncnc3NC(c3ccc4c(c3)OCO4)C2)cc1 (centres undefined)",
    "label value": "0 (no)"
  },
  {
    "molecule": "O=[N+]([O-])C1C(c2ccccc2)C12c1ccccc1-c1ccccc12 (centres undefined)",
    "label value": "0 (no)"
  }
]
